test.target: T1, PARD3B-1, first PDZ domain of PARD3B (human, UniProt Q8TEW8 201-289)
T1 construct: PARD3B, human, PDZ domain 1; not shown: His6, N-terminal, kept; MBP, N-terminal, kept
T1 sequence (looked up): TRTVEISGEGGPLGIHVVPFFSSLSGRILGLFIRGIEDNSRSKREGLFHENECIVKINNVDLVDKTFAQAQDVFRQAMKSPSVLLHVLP
measurement.notes: fluorescence polarisation; direct: N-terminally fluorescein-labelled PBM peptide (tracer) with increasing amounts of MBP-PDZ; 384-well plates; triplicate; direct binding model (ProFit)
condition.description: both partners purified
Where no end group is shown, it is not given here.
measurement.kind: Kd (µM)
// units = µM; emit number, no label

Ask | Return reported Kd; argument: fluorescein-KLPSTTL (source: synthetic peptide) [fRSK1, fluorescein-labelled RSK1 PBM peptide]
Reply | 33.7
